test_details: yeast display, Sf9 membrane polyspecificity reagent, FACS + sequencing; frameworks hold sequencing errors
measurement_type: polyreactivity (PSR sort gate)

Field: example entries. Status: answers known.
seq_text	measurement_type	measured_result
QVQLVESGGGLVQAGGSLRLSCAASGSTLRRNAMGWYRQAPGKERELVAAITGSRGSTFYADSVKGRFTISRDNAKNTVYLQMNSLKPEDTAVYYCAVYKWSTRVSQYRYDYWGQGTQVTVSS	polyreactivity (PSR sort gate)	high polyreactivity
QVQLVESGGGLVQAGGSLRLSCAASGRTYSNAMGWYRQAPGKELEFVASISSGGRTKDADSVKGRFTISRDNAKNTVYLQMNSLKPEDTADYYCNTVPGRYRTFDYWGQGTKVTVSS	polyreactivity (PSR sort gate)	high polyreactivity
QVQLVESGGGLVQAGGSLRLSCAASGFIFTPYAMGWYRQAPGKERELVAAIRNTGSTYYADSVKGRFTISRDNAKNTVYLQMNSLKPEDTAVYYCNARRYRWAVVKGGYWGQGTQVTVSS	polyreactivity (PSR sort gate)	high polyreactivity
QVQLVESGGGLVQAGGSLRLSCAASGSIFTHYAMGWYRQAPGTERELVAGITSSGGSTYADSVKGRFTISRDNAKNTVYLQMNSLKPEDTAVYYCAAEQLRSRLIEYDYWRQGTQVTVSS	polyreactivity (PSR sort gate)	low polyreactivity
QVQLVESGGGLVQAGGSLRLSCADSGITFFTYAMGRYRQAPGKERELVAAISGSGGSTYYADYVKWRFTISRDNAKNTVYLQMNSLKPEDTEVYYCAAEYTYGSPYDYWGQGTQVTVSS	polyreactivity (PSR sort gate)	low polyreactivity
QVQLVESGGGLVQAGGSLRLSCAASGSISGVYAMGWYRQAAGKDRALVAASSGGSGRTYYADSVKGRFTISRDNAKNTVYLQMISLKPEDTAVYYCAKTVLYSSYRKYDYWGQGSQVTVSS	polyreactivity (PSR sort gate)	high polyreactivity
QVQLVESGGGLVQAGGSLRLSCAASGLIFGYNAMGWYRQAPGKEREFVAGISVIDGRTYYADSVKGRFTISRDNAKNTVYLQMNSLIPEDTAVYYCAADRWYKYYFLTYGYWGQGTQVTVSS	polyreactivity (PSR sort gate)	low polyreactivity
QVQLVESGGGLVQAGGSLRLSCAASGRIFYVYAMGGYRQAPGKERELVAGITSGGSTTYADSVKGRFTISRDNAKNTVYLQMNSLKPEDTAVYYCAALQRQSYWTYGYWGHGTQVTVSS	polyreactivity (PSR sort gate)	high polyreactivity
QVQLVESGGGSVQAGGSLRLSCAASGRTFYGYAMGWYRQAPGKERELGASISRDGSTNYADSVKGRFTISRDNAKNTVYLQMTSLKPEDTAVYYCAADIWYYRYPIYYYSYDYWGQGTQVNVSS	polyreactivity (PSR sort gate)	low polyreactivity
QVQLVESGGGLVQAGGSLRLSCAASGSTFGTYVMGWYRQAPGKERELVAAISKRGGRTYYADSVKGRFTISRDNAKNTVYLQMNSLKPEDTAVYYCNAVYLYSGSSARYYWGQGTQVTVSS	polyreactivity (PSR sort gate)	high polyreactivity

Ask: Provide only the value of recorded polyreactivity (PSR sort gate) for QVHLVESGGGLVQAGGSLRLSSAASGITFWHNTMGWYRQAPGKERELVAAISWTGGRTYYADSVKGRFTISRDNAKNTVYLQMNSLKPEDTAVFSCAADFSWTPCGNYDSWGQGTQVTVSS
Reply: low polyreactivity

###

test_details: yeast display, Sf9 membrane polyspecificity reagent, FACS + sequencing; frameworks hold sequencing errors
measurement_type: polyreactivity (PSR sort gate)

seq_text	measured_result
QVQLVESGGGLVQAGGSLRLSCAASGRTFTYNAMGWYRQAPGKERELVAAITYRGGSTYYADSVKGRFTISRDNSNNTVYLQMNSLKPEDTAVYYCAASVSYYRYNTPHYYYWGQGTQVTVSS	high polyreactivity
QVQLVESGGGLVQAGGSLRLSCAASGSTLVDYAMGWYRQAPRKERELVATISFRGGSTYYADSVKGRFTISRDNAKNTVYLQMNSLKPEDTAVYYCAREYGDGYEYWGQGTQVTVSS	low polyreactivity
QVQLVESGGGLVQAGGSLRLSCAASGFTFQIYAMGWYRQAPGKERELVAAITWSGGRTYYGDSVKGRFTISRDNAKNTVYLQMNSLKREDTAVYYSNARYTTGSDPGGPGTYGYWGQGTQVTVSS	low polyreactivity
QVQLVESGGGLVQAGGSLRLICDASGRIFSFNAMGWSRQAPGKETELVAGITYGGNTYYADSVKGRFTISRDNANNTVYLQMNSLKPEDTAVYYCSAVRGVRHDYWGQGTQVTVSS	low polyreactivity
QVQLVESGGGLVQAGGSLRLSCAASGFTFYRNDMGWYRQAPGKEREFVAAITTSGGSTYYADSVKGRFTISRDNAKYTVYLQMNSLKPEDTAVYYCNAYGDGYWKTFGYWGQGTQVTVSS	high polyreactivity

Ask: Output polyreactivity (PSR sort gate) of QVQHVESGGCLVQARGSLRLSCASSGRTFDIYARGWYRHPPGKESELVAVISASGGSTYYADSVKGRFTISRDNAKNTVYLQMNSLKPEDTAVYYCAARYWFRFQYDYWGQGTQVTVSS
Reply: high polyreactivity

Ask: Write down polyreactivity (PSR sort gate) measured for item QVQLVESGVGLVQAGGSLRLSCAASGSIFGYYVMGWYRQAPGKERELVAAISGSDSSTYYADSVKGRFTISRDNAKNTVYLQMNRLKPEDTAVYYCNADQRYYPVEFDYWGQGTQVTVSS
Reply: low polyreactivity

Ask: Assign polyreactivity (PSR sort gate) to the following record: QVQLVESGGGLVQAGGSLRLSCAASGSIFYGYAMGWFRQAPGKEREFVADITSSGVSTYYADSVKGRFTISRDNAKNSVYLQINSLKPEDTAVYYCAKLRRYYSSVYHKFVFYTDDYWGQGSQVTVSS
Reply: high polyreactivity

Ask: Provide polyreactivity (PSR sort gate) value for the following sequence: QFQLVESGGGLVQAGGSLRLSCAASGFIDNTMGWYRQAPGKQRELVATISWSDGSTYYADSVKGRFTISRDNAKITVYLLMNSLKPEDTAVYYCAATTDALVGRPRYDYWGQGTQVTVSS
Reply: low polyreactivity

Ask: Name the recorded polyreactivity (PSR sort gate) of the item QVQLVESGGGLVQAGGSLRLSCAASGYTFTIYAMGWYRQAPGKERELVAAITGGGGRTYYADSVKGRFTISRDNAKNTVYLQMNSLKPEDTAVYYCAASGPIVGMNYWGQGTQVTVSS in your answer.
Reply: high polyreactivity

Ask: Please give measured polyreactivity (PSR sort gate) of the following entry: QVQLVESGGGLVQAGGSLRLSCAASGIIFNKYAMGWYRQAPGKEREFVAAITYRGGSTYYADSVKGRFTISRDNAKNTVYLQMNSLKPEDTAVYYCAARRITTYYYWGQGTQVTVSS
Reply: high polyreactivity

###

test_details: yeast display, Sf9 membrane polyspecificity reagent, FACS + sequencing; frameworks hold sequencing errors
measurement_type: polyreactivity (PSR sort gate)

Sample answers from the record:
seq_text	measured_result
QVQLVESGGGLVQAGGRLRLSCAASGSIFYHYAMGWSRQAPGKERELVAAISQSGGGTYYADSVKGRFTISRDYAKNTVYLQMNSLKPEDTAVYYCAADRTGPYDYWGQGTQVTVSS	high polyreactivity
QVQLVESGGGLVQAGGSLRLSCAASGSTFQGNAMGWYSQAPGKERELVAAISRSGGSTYADSVKGRFTISRDNAKNTVYLQMNSLKPEDTAVYYCAAYSGVGYLWFDYWGQGTQVTVSS	low polyreactivity
QVQLVESGGGLVQAGGSLRLSCAASGSIYYWYASGWYIHAPGKERELVAAITSGGSTNYADSVKGRFTISRDNAKNTVYLQMNSLKPEDTAVYYCAASSVLTNHDYWGQGTQVTVSS	low polyreactivity
QVQLVESGGGLVQAGGSLRLSCAASGSTFPPYVIGWYRPAPGKERELVAAITWSSGSTYYADSVKGRFTISRDNAKNTVYLQMNSLKPEDTAVYYCAARAYRWGQGTQVTVSS	low polyreactivity
QVQLVESGGGLVQAGGSLRLSCAASGSTLTSNAMGWYRQAPGKERELVAAIRSGGSTNYADSVKGRFTISRDNAKNTVYLQMNSLKPEDTAVYYCNKDVLWQGYGYSRVSYDYWGQGTQVTVSS	low polyreactivity

Ask: Give reported polyreactivity (PSR sort gate) value for QVQLVESGGGLVQAGGSLSLSFAASGSTFERYAMGWSRQAPGKERELVAAIRASGVRTYYADSVKGRFTISRDNAKNTVNLQMNSLKPEDTAVYYCAAELQRYWGRLYYYWGQGTQVSVSS
Reply: high polyreactivity

Ask: // Input: QVQLVDSGGGLVQAGGSLSLSCAASGSTYAYYAMGWYRQAPGKVRELVAGITWTGGSTYYADSVKGRFTISRDNAKNTVYLQMNSLKPEDTAVYYCAVTYPYGYEYDHWGQGTQVTVSS . Output its polyreactivity (PSR sort gate) only.
Reply: low polyreactivity

Ask: Report measured polyreactivity (PSR sort gate); entry is QVQLVESGGGLVQAGGSLRLSCAASGSTFPGNAMGGYRQAPGKERELVAAINWSGDSTYYADSVKGRFTISRDNAKNTVYLQMNSLKPEDTAVYYCAAYGDGYYYWGQGTQVTVSS
Reply: low polyreactivity
